All values here come from ChEMBL document CHEMBL5528027.

For reference, log10 of IC50 measured on Beta-ketoacyl-[acyl-carrier-protein] synthase III (Escherichia coli K-12, UniProt P0A6R0):
The common logarithm of IC50 in µM is what is listed.

| chemicalString | log10 of IC50 |
| --- | --- |
| CN1CCN(C(=O)c2ccc3c(c2)OCCCO3)CC1 | 1.58 |

// input: 3 compounds below; output: log10 of IC50 for each
1. CC(=O)c1cccnc1NC(=O)c1ccc2c(c1)OCCCO2
2. O=C(Nc1ccc(C(F)(F)F)cn1)c1ccc2c(c1)OCCCO2
3. O=C(Nc1ccc2cc[nH]c2c1)c1ccc2c(c1)OCCCO2

a:
1. 1.67
2. 0.93
3. 1.12
